Hi there, I'd appreciate the recorded ratio of amounts bound vs CE115HA000 for every entry that follows.
- SYSTEM_UNDER_TEST: T1, CD3ε homodimer protein (human, UniProt P07766 23-126, limits assumed, sulfo-tag or biotin label in some ECL assays)
- T1 construct: also called human CD3ε homodimer protein; CD3 (CD3ε)
- PROCEDURE_TEXT: SPR, CD3ε homodimer on chip;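 further: biacore SPR with antibody variants flowed as analyte over amine-coupled CD3ε homodimer on a CM chip, bound amount of each single-residue H chain variant over that of parent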
One number for each entry.

Worked examples, 2 binders total:
ratio of amounts bound vs CE115HA000 reported for this binder CE115HA000 Q50S (antibody, name in Kabat numbering, V domains shown) VH: QVQLVESGGGVVQPGRSLRLSCAASGFTFSNAWMHWVRQAPGKGLEWVASIKAKSNNYATYYAESVKGRFTISRDDSKNSLYLQMNSLKTEDTAVYYCRYVHYGAYYGVDAWGQGTTVTVSS VL: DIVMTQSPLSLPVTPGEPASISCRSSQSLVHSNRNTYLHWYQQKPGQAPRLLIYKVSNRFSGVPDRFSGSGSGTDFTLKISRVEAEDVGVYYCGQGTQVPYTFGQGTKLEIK : 0.24

So, CE115HA000 H35K (antibody, name in Kabat numbering, V domains shown) VH: QVQLVESGGGVVQPGRSLRLSCAASGFTFSNAWMKWVRQAPGKGLEWVAQIKAKSNNYATYYAESVKGRFTISRDDSKNSLYLQMNSLKTEDTAVYYCRYVHYGAYYGVDAWGQGTTVTVSS VL: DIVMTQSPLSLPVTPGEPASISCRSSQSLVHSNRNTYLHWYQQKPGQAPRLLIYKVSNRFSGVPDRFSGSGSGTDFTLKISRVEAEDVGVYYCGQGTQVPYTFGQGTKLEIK ? Its ratio of amounts bound vs CE115HA000 was 0.15

Here is another binder to look at.
Sample CE115HA000 K43Q (antibody, name in Kabat numbering, V domains shown) VH: QVQLVESGGGVVQPGRSLRLSCAASGFTFSNAWMHWVRQAPGQGLEWVAQIKAKSNNYATYYAESVKGRFTISRDDSKNSLYLQMNSLKTEDTAVYYCRYVHYGAYYGVDAWGQGTTVTVSS VL: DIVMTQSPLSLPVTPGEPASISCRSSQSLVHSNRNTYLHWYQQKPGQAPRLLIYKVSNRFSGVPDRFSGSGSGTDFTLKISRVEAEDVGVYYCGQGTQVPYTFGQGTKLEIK ; ratio of amounts bound vs CE115HA000 observed: 0.99
